# Target: T1, Rb^P T687I (human, UniProt P06400 380-788, T687I)
# T1 construct: also called variant 59
# T1 sequence (looked up): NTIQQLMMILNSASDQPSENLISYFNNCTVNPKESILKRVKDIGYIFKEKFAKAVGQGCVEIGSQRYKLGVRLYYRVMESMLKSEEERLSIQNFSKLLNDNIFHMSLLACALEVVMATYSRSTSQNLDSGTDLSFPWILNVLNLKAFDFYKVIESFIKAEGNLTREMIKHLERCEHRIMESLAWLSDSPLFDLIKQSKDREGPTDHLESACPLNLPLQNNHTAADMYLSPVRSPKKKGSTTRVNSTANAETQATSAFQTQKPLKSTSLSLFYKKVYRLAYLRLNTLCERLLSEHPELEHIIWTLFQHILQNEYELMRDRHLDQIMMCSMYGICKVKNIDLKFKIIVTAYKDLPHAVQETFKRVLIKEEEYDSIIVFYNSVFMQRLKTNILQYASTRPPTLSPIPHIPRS
# Experimental Protocol: fluorescence polarisation; 37 °C, after the 25 °C reading ramped over 7 min to 37 °C and 2 min incubation; unlabeled Rb^P against 1.5 nM TMR-E2F1^TD or 7.5 nM TMR-E7^LxCxE; 25 mM Tris pH 8.0, 200 mM NaCl, 1 mM DTT, 0.1% Tween-20; apparent Kd
# Experimental Setup: both partners purified
No end group written: not given here. TMR = tetramethyl rhodamine dye
Measurement Type: pKd
Note: pKd values are expressed as the negative base-10 logarithm of concentration in M.

Binder	pKd
DLYCYEQLN (also: TMR label, position not given here, source: synthetic peptide, bought: GenScript) [TMR-E7^LxCxE, LxCxE peptide of the E7 oncoprotein from HPV]	7.54

Now turn to the next binder.
The value of pKd measured for the binder {TMR}-GEGIRDLFDCDFGDLTPLD (also called E2F^TD; source: synthetic peptide, bought: GenScript) [TMR-E2F1^TD, peptide of the E2F1 transactivation domain] turned out to be 7.40
